Hello, the source for this data is ChEMBL document CHEMBL1154203, in case you need it.

# measurement_description: Apparent permeability from basolateral to apical side of human Caco-2 cells at 10 uM
# Format: ADME, cell-based
measure_name: Papp B→A at 10 µM (×10⁻⁶ cm/s)
# unit: ×10⁻⁶ cm/s | format: bare number

Which Papp B→A at 10 µM reading was recorded for the compound "CC(C)CN(C(=O)c1cccc(Cl)c1Cl)[C@H]1CCNC1" ? 26

----------
# system_name: Cytochrome P450 1A2 (Homo sapiens)
# Sequence (P05177 whole entry): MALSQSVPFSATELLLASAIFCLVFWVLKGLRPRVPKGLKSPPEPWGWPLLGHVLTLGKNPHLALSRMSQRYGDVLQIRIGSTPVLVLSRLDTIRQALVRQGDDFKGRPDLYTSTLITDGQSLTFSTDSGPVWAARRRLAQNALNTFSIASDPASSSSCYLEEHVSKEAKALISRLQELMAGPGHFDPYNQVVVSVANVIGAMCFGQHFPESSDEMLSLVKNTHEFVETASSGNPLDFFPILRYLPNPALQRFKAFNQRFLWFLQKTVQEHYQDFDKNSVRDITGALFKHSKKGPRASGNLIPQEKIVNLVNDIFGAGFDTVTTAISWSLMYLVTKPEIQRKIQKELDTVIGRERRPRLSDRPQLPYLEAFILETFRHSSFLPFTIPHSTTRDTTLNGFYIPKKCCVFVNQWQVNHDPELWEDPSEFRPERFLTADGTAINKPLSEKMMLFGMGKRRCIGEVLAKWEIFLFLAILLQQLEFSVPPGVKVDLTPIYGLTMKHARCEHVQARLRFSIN
measure_name: IC50

Given the entry "CC(C)CN(C(=O)c1cccc(Cl)c1Cl)[C@H]1CCNC1" , what IC50 was observed with Cytochrome P450 1A2 (Homo sapiens)? > 30 µM

----------
# measurement_description: Lipophilicity, log D at pH 7.4
# Assay type: physicochemical
# condition_context: buffer
measure_name: logD
Field format: numeric only.

Which logD reading was recorded for the compound "CC(C)CN(C(=O)c1cccc(Cl)c1Cl)[C@H]1CCNC1" ? 0.6

----------
# system_name: UniProt:P08684
# Sequence (P08684 whole entry): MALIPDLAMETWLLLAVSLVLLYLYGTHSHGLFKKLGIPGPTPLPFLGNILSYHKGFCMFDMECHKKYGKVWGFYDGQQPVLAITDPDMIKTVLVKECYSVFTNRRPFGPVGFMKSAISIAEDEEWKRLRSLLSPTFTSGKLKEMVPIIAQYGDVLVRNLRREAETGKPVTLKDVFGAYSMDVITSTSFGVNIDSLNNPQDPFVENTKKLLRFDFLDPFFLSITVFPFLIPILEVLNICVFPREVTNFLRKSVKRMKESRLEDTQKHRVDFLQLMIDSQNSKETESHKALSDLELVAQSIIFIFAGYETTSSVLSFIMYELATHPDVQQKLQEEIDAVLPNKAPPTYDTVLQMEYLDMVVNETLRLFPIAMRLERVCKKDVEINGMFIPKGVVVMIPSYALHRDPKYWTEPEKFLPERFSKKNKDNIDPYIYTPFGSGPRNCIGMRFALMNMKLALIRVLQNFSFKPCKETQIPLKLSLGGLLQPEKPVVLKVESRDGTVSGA
# measurement_description: Inhibition of CYP3A4 using felodipine as a substrate
# Assay type: ADME
measure_name: IC50

Which IC50 reading was recorded for the compound "CC(C)CN(C(=O)c1cccc(Cl)c1Cl)[C@H]1CCNC1" ? > 30 µM

----------
This document collects pKi values reported for Sodium-dependent dopamine transporter (Homo sapiens, UniProt Q01959).
Formally, pKi is defined as -log10 of the concentration c, with c in mol/L.

{"columns": ["compound_smiles", "pKi"],
 "data": [
  ["O=C(c1cccc(Cl)c1Cl)N(CC(F)(F)F)[C@H]1CCNC1", 5.43],
  ["CC(C)CN(C(=O)c1ccc(Cl)cc1Cl)[C@H]1CCNC1", 5.62],
  ["O=C(c1cccc(Cl)c1Cl)N(CCC1CC1)[C@H]1CCNC1", 6.39],
  ["CCC(CC)N(C(=O)c1cccc(Cl)c1Cl)[C@H]1CCNC1", 5.59],
  ["Cc1c(Cl)cccc1C(=O)N(CC(C)C)[C@H]1CCNC1", 6.29]
]}

The record that follows has no pKi shown yet.
Which pKi reading was recorded for the molecule "CC(C)CN(C(=O)c1cc(Cl)ccc1Cl)[C@H]1CCNC1" ? 5.61

----------
# measurement_description: in vitro
# condition_context: human, liver microsomes
# Description: Intrinsic clearance in human liver microsomes
// NB: equality with 20 µL/min/mg counts as rule not met; only microsomal CLint strictly below is rule met

{"columns": ["compound_smiles", "discrete_label"],
 "data": [
  ["CCC(CC)N(C(=O)c1cccc(Cl)c1Cl)[C@H]1CCNC1", "rule not met"],
  ["O=C(c1cccc(Cl)c1Cl)N(C1=CCOC=C1)[C@H]1CCNC1", "rule met"],
  ["CC(C)CN(C(=O)c1cc(Cl)ccc1Cl)[C@H]1CCNC1", "rule not met"],
  ["CC(C)CN(C(=O)c1cccc(Cl)c1)[C@H]1CCNC1", "rule not met"],
  ["O=C(c1cccc(Cl)c1Cl)N(CC(F)(F)F)[C@H]1CCNC1", "rule met"],
  ["CC(C)CN(C(=O)c1ccccc1C(C)C)[C@H]1CCNC1", "rule met"]
]}

Field: below-cutoff. Rule: recorded microsomal CLint strictly less than 20 µL/min/mg. Subject: "O=C(c1cccc(Cl)c1Cl)N(CCC1CC1)[C@H]1CCNC1" rule not met

Field: below-cutoff. Rule: recorded microsomal CLint strictly less than 20 µL/min/mg. Subject: "CCN(C(=O)c1cccc(Cl)c1Cl)[C@H]1CCNC1" rule met

Field: below-cutoff. Rule: recorded microsomal CLint strictly less than 20 µL/min/mg. Subject: "CC(C)C(=O)N(Cc1cccc(Cl)c1Cl)[C@H]1CCNC1" rule met

Field: below-cutoff. Rule: recorded microsomal CLint strictly less than 20 µL/min/mg. Subject: "CC(C)CN(C(=O)c1cccc(Cl)c1F)[C@H]1CCNC1" rule not met

Field: below-cutoff. Rule: recorded microsomal CLint strictly less than 20 µL/min/mg. Subject: "CC(C)CN(C(=O)c1cccc(Cl)c1Cl)[C@H]1CCNC1" rule met

Field: below-cutoff. Rule: recorded microsomal CLint strictly less than 20 µL/min/mg. Subject: "Cc1c(F)cccc1C(=O)N(CC(C)C)[C@H]1CCNC1" rule not met

Field: below-cutoff. Rule: recorded microsomal CLint strictly less than 20 µL/min/mg. Subject: "O=C(c1cccc(Cl)c1Cl)N(C1CCCC1)[C@H]1CCNC1" rule met

Field: below-cutoff. Rule: recorded microsomal CLint strictly less than 20 µL/min/mg. Subject: "CC(C)CN(C(=O)c1ccc(Cl)c(Cl)c1)[C@H]1CCNC1" rule not met
